- tested-target: T1, full length human KLRG1 (cell-expressed) (human, UniProt Q96E93 1-195)
- T1 construct: whole, on cells; also called CHO-human-KLRG1
- T1 sequence (looked up): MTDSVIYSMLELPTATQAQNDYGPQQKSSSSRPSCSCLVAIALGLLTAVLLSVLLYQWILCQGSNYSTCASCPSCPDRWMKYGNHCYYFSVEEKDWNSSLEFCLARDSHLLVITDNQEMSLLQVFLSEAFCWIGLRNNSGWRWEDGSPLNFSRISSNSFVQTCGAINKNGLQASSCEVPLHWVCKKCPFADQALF
- assay-comment: FACS on CHO cells expressing full length human KLRG1, anti-mouse detection
- Protocol: Binding of anti-KLRG1 monoclonal antibodies to cells that expressed human and cynomolgus-KLRG1 was carried out by FACS. Chinese hamster ovary (CHO) cells were stably transfected to express full length human KLRG1 (CHO-human-KLRG1) and cynomolgus KLRG1 (CHO-cynomolgus-KLRG1). […] Table 7 summarizes the EC50 binding data measured for selected antibodies.
Here, each record is paired with measured EC50 data.

binder: ABC_G1D01 (antibody, V domains shown, Mouse hybridoma monoclonal antibody) VH: EVQLQQSGPELVKPGASVKMSCKASGYTFTDYNIHWVKQSHGKSLEWIGFFNPKNGVTINNQNFKGKAALTVNKSSSTAYMELRRLTSEDSAVYYCARDYYGTAWFAYWGQGTLVTVSA VL: DIVMSQSPSSLAVSVGEKVTMSCRSSQSLLYSSNQKNYLAWYQQKPGQSPKLLIYWASTRESGVPDRFTGSGSGTDFTLTISSVKAEDLAVYYCQQFYSYPTFGGGTKLEIK
EC50 / nM: 4.87
//
binder: ABC_G1D04 (antibody, V domains shown, Mouse hybridoma monoclonal antibody) VH: EVQLQQSGPELVKPGSSLMMSCKSSGYTFTDYNIHWVKQSHGKRLEWIGFIDPKNGGTLYSEKFKDKATLTINKSSSTAYMELRSLTSEDSAVFYCAPDYYGSAWFAYWGQGTLVTVSA VL: DIVMSQSPSSLTVSVGENVTMSCKSSQNLLYTSNQKNYLAWYQQKPGHSPKLLISWASTRESGVPDRFTGSGSGTDFTLTITSVKAEDLAVFYCQQYYHYPTFGGGTKLEIK
EC50 / nM: 213
